// reported folding stability dG per item
B1: 2K2A (parent)
chain: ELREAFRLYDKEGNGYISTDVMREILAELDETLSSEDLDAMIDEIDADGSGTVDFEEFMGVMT

Variants of: B1
Experiment: folding stability dG (cDNA display proteolysis); higher = more stable
Settings: PBS, room temperature
Write the value in kJ/mol as a bare number.

Field: example entries. Status: answers known.
MUTANT_NAME: D46Y
READOUT_NAME: folding stability dG
EXPERIMENTAL_RESULT: 2.71
--
MUTANT_NAME: E36Q
READOUT_NAME: folding stability dG
EXPERIMENTAL_RESULT: 7.64
--
MUTANT_NAME: R3E
READOUT_NAME: folding stability dG
EXPERIMENTAL_RESULT: 9.05
--
MUTANT_NAME: I42T
READOUT_NAME: folding stability dG
EXPERIMENTAL_RESULT: 1.64
--
MUTANT_NAME: S34F
READOUT_NAME: folding stability dG
EXPERIMENTAL_RESULT: 2.8

Please find the next variant below.
Query :: Could you share which folding stability dG value was measured for M41L ?
Result :: 8.51
